Taken from patent US11471537B2.

Would you mind telling me the reported Average blood glucose of each entry?
- Tested on: Sprague-Dawley rats
- EXPERIMENT_SUMMARY: PD studies: blood glucose after subcutaneous dosing
- Format: in vivo
- STATED_CONDITIONS: sc, dose 30 nmol/kg, time 7 days
Report the value in mM with no unit label.

Task item: Need Average blood glucose of A14E, A21G, A22(GQAPGQAPGQEP)6-GQAP, A98K^, A99P, B3Q, B25H, B29R, desB30 human insulin/(227A, 234A, 235K, 297E, 315Q, 384Q, des447 hIgG4-Fc(228-447))4-[bis[2-[(2-acetyl)amino]ethyl]carbamoylamino]butanoyl Conjugate [Example 5.24] , thanks.
Reply: 6.092

Task item: Need Average blood glucose of A14E, A21G, A22(GQAPGQEP)6, A70K^, A71P, B25H, B29R, desB30 human insulin/(227A, 234A, 235K hIgG4-Fc(228-447))4-[bis[2-[(2-acetyl)amino]ethyl]amino]-4-oxo-butanoyl Conjugate [Example 5.9] , thanks.
Reply: 6.312

Task item: Need Average blood glucose of A14E, A21G, A22(GQAPGQEP)6, A70K^, A71P, B25H, B29R, desB30 human insulin/(227A, 234A, 235K, 297E, 315Q, 384Q, des447 hIgG4-Fc(228-447))4-[bis[2-[(2-acetyl)amino]ethyl]amino]-4-oxo-butanoyl Conjugate [Example 5.14] , thanks.
Reply: 6.076

Task item: Need Average blood glucose of A14E, A21G, A22(GQAPGQAPGQEP)6-GQAP, A98K^, A99P, B3Q, B25H, B29R, desB30 human insulin/(227A, 234A, 235K hIgG4-Fc(228-447))4-[bis[2-[(2-acetyl)amino]ethyl]amino]-4-oxo-butanoyl Conjugate [Example 5.5] , thanks.
Reply: 5.76

Task item: Need Average blood glucose of A14E, A21G, A22(GQAPGQAPGQEP)6-GQAP, A98K^, A99P, B29R, desB30 human insulin/(227A, 234A, 235K, 297E, 315Q, 384Q, des447 hIgG4-Fc(228-447))4-[bis[2-[(2-acetyl)amino]ethyl]amino]-4-oxo-butanoyl Conjugate [Example 5.19] , thanks.
Reply: 6.128

Task item: Need Average blood glucose of A14E, A21G, A22(GQAPGQAPGQEP)6-GQAP, A98K^, A99P, B3Q, B25H, B29R, desB30 human insulin/(227A, 234A, 235K, 297E, 315Q, 3840, des447 hIgG4-Fc(228-447))4-[bis[2-[(2-acetyl)amino]ethyl]amino]-4-oxo-butanoyl Conjugate [Example 5.13] , thanks.
Reply: 5.812
